The origin of these recorded values is paper PMC12226733.

System: GluE1αA m2 variant (S653G, I655T)
Assay type: cell-based, Trichoplax adhaerens
Conditions: m2; agonist 1 mM
observation type: normalized peak inward current, Avg
Answer with the value's number alone.

N[C@@H](CCC(=O)O)C(=O)O [glutamate] ... 0.76
CN[C@H](CC(=O)O)C(=O)O [NMDA, N-methyl-D-aspartate] ... 0.0107
C=C(C)[C@H]1CN[C@H](C(=O)O)[C@H]1CC(=O)O [kainate] ... 0.00537
N[C@@H](Cn1oc(=O)[nH]c1=O)C(=O)O [quisqualate] ... 0.00939

Moving on to the next molecule.
Endpoint output: normalized peak inward current, Avg of Cc1onc(O)c1CC(N)C(=O)O (centres unmarked) . Value?
0.00676

====

Tested on: GluE1αA m3 variant (S653G, I655T, F732Y)
Type: cell-based, Trichoplax adhaerens
Settings: m3; ligand 10 mM; normalized to glutamate
observation type: normalized peak inward current, Avg
// return a plain number; no unit text

N[C@@H](CO)C(=O)O ... 0.07
N[C@H](CO)C(=O)O ... 0.19

Sample N[C@@H](CCC(=O)O)C(=O)O [glutamate] — what was its normalized peak inward current, Avg?
1.00

Requested field: normalized peak inward current, Avg. Item: NCC(=O)O
0.0446

Which normalized peak inward current, Avg value is on record for CC(C)[C@H](N)C(=O)O ?
0.0123

Returns the measured normalized peak inward current, Avg for the input compound. Input: C[C@H](N)C(=O)O
0.0342

====

Molecular target: T. adhaerens GluE1αA receptor (wildtype) (Trichoplax adhaerens, UniProt B3SAW0)
Sequence (B3SAW0 entry or part of it): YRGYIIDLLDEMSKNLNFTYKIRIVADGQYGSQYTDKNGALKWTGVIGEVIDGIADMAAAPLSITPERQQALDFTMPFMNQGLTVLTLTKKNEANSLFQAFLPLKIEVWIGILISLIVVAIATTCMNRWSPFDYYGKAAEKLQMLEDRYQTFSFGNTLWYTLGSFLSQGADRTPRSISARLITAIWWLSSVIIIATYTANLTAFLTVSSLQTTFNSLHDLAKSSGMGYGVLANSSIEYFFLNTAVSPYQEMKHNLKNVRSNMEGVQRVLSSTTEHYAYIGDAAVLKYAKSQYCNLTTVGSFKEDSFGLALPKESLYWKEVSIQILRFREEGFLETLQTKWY
Test: whole-cell patch clamp, agonist-evoked currents in CHO-K1 cells
Conditions: wildtype; monophasic dose-response fit of normalized whole-cell current
observation type: EC50

Return EC50 measured with T. adhaerens GluE1αA receptor (wildtype) (Trichoplax adhaerens, UniProt B3SAW0) given this compound: N[C@H](CO)C(=O)O
190 µM

====

Biological target: T. adhaerens GluE1αA receptor (wildtype) (Trichoplax adhaerens)
Assay: whole-cell patch clamp, agonist-evoked currents in CHO-K1 cells
Type: cell-based
Settings: ligand tested on its own at 10 mM
observation type: activation of ligand-gated current

Field: example entries. Status: answers known.
N[C@H](CO)C(=O)O [D-serine] ... activated
C[N+](C)(C)CC(=O)O [betaine] ... no responses
C[C@H](N)C(=O)O [alanine, L-alanine] ... activated
N[C@@H](CCC(=O)O)C(=O)O [glutamate] ... no responses
N[C@@H](CC(=O)O)C(=O)O [aspartate] ... no responses
N=C(N)NCCC[C@H](N)C(=O)O [arginine] ... no responses
C[C@@H](O)[C@H](N)C(=O)O [threonine] ... no responses

# input molecule: N[C@@H](CO)C(=O)O [L-serine] ; wanted: its activation of ligand-gated current
activated

====

# normalized peak inward current, Avg per record follows
Target: T. adhaerens GluE1αA receptor (wildtype) (Trichoplax adhaerens, UniProt B3SAW0)
Experiment: whole-cell patch clamp, agonist-evoked currents in CHO-K1 cells
Type: cell-based
Conditions: wild type; agonist 1 mM
The response must contain the number and no unit.

The following molecules have reported results that may help.
N[C@@H](CCC(=O)O)C(=O)O [glutamate] ... 0.0035
Cc1onc(O)c1CC(N)C(=O)O (centres unmarked) ... 0.00463
C=C(C)[C@H]1CN[C@H](C(=O)O)[C@H]1CC(=O)O [kainate] ... 0.00265
N[C@@H](Cn1oc(=O)[nH]c1=O)C(=O)O [quisqualate] ... 0.00248

Next molecule, normalized peak inward current, Avg to be filled in.
Sample CN[C@H](CC(=O)O)C(=O)O [NMDA, N-methyl-D-aspartate] — what was its normalized peak inward current, Avg?
0.00229

====

Target: T. adhaerens GluE1αA receptor (wildtype) (Trichoplax adhaerens, UniProt B3SAW0)
Experiment: whole-cell patch clamp, agonist-evoked currents in CHO-K1 cells
Assay type: cell-based
Details: wild type; ligand 10 mM; normalized to glycine
So basically: normalized peak inward current, Avg at 0.9 or higher? That is fulfilled. Lower than 0.9? That is not fulfilled.

Example results:
N[C@@H](CCC(=O)O)C(=O)O [glutamate] ... not fulfilled
N[C@@H](CO)C(=O)O [L-serine] ... fulfilled
N[C@H](CO)C(=O)O [D-serine] ... fulfilled

Kindly determine if normalized peak inward current, Avg recorded for CC(C)[C@H](N)C(=O)O [valine] is above or exactly 0.9.
not fulfilled

====

Target: GluA2(Q) wt (Homo sapiens)
Sequence (P42262 25-883): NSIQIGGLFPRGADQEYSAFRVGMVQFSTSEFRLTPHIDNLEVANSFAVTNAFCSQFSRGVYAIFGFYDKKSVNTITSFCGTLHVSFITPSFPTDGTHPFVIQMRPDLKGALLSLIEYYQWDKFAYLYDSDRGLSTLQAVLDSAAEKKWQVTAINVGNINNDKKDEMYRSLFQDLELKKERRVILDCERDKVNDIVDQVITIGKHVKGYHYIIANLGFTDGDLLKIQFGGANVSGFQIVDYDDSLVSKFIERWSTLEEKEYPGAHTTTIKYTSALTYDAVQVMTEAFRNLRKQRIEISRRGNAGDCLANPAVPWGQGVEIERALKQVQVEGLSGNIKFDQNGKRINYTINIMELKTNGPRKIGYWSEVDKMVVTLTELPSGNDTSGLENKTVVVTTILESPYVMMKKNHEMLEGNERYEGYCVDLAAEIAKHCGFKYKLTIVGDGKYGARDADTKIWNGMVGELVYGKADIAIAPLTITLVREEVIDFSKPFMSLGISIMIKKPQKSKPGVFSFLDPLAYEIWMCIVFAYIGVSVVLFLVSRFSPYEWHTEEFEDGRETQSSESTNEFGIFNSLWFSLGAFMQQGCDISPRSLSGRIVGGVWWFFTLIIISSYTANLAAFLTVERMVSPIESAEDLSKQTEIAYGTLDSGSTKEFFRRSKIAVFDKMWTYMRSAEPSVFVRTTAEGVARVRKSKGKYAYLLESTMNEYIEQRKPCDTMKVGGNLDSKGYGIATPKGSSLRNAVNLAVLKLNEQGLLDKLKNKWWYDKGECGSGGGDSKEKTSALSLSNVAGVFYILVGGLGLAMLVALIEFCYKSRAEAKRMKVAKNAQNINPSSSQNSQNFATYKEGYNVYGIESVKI
Assay: outside-out patch clamp, block by intracellular spermine, HEK-293T/17 cells
Settings: GluA2(Q) wt; 30 µM internal Spm; 10 mM glutamate; read-out: Kd(0mV)
observation type: pKd
Please express pKd as -log10 of the molar concentration.

Please look up its pKd: NCCCNCCCCNCCCN [spermine]
5.27

====

Biological target: GluA2 D611A + γ2 (Homo sapiens, UniProt P42262, D611A)
Sequence (P42262 25-883 D611A): as the sequence (P42262 25-883) above, with D587A counted along it
Sequence (Q9Y698 whole entry partner): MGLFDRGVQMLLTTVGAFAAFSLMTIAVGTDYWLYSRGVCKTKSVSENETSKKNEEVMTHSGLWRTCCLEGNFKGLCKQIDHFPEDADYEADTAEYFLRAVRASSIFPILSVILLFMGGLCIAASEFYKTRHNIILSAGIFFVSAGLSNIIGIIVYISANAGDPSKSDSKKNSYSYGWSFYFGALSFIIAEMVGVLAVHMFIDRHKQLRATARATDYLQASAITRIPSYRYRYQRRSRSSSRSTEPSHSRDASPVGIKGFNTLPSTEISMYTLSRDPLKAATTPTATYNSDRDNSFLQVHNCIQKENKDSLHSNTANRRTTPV
Test: outside-out patch clamp, block by intracellular spermine, HEK-293T/17 cells
Conditions: GluA2 D611A + γ2; 30 µM internal Spm; 10 mM glutamate; read-out: Kd(0mV)
observation type: Kd (µM)
All answers are understood in µM, so give the number only.

Report Kd for NCCCNCCCCNCCCN please.
169

====

Molecular target: GluA2 Q607S (Homo sapiens, UniProt P42262, Q607S)
Construct: host or cells: HEK-293T/17
Sequence (P42262 25-883 Q607S): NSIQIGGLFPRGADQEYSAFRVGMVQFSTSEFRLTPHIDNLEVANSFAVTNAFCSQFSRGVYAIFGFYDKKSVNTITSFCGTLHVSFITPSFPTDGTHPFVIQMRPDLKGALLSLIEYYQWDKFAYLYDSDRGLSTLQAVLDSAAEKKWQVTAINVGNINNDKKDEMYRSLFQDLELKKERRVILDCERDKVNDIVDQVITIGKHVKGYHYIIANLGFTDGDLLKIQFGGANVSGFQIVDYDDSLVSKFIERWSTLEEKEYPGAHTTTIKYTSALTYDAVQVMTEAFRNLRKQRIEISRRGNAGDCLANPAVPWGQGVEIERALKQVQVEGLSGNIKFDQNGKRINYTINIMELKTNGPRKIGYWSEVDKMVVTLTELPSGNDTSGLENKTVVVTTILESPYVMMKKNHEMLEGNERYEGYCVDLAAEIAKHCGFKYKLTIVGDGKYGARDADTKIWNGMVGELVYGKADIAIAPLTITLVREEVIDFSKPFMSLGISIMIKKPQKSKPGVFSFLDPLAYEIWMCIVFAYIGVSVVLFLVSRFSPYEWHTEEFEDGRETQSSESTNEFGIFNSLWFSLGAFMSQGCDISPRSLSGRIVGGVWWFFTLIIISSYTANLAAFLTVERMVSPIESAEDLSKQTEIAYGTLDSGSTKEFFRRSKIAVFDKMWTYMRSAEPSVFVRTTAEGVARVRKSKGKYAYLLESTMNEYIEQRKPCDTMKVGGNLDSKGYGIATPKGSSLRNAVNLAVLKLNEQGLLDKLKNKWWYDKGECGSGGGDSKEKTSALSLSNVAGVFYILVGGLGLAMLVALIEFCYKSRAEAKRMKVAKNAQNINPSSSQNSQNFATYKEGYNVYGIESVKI
Assay: outside-out patch clamp, block by intracellular spermine, HEK-293T/17 cells
Assay type: biochemical
Settings: GluA2 Q607S; 30 µM internal Spm; 10 mM glutamate; read-out: Kd(0mV)
Description: Parallel experiments were carried out in human GluA2 homotetramers bearing equivalent Q/R/N and +4 site mutations to compare the regulation of voltage-dependent polyamine block within the broader context of mammalian receptors. […] HEK-293T/17 cells (ATCC) were maintained in MEM supplemented with GlutaMAX and 10% fetal bovine serum (FBS) at 37 °C and 5% CO2. […] Electrophysiology responses were recorded from outside-out patches excised from transfected cells. […]
observation type: pKd
Entry type: numeric. Quantity: pKd, the -log10 of concentration in molar units.

Tell me the measured pKd of NCCCNCCCCNCCCN [spermine] , please.
4.44

====

Known normalized peak inward current, Avg of a selection of molecules
System: GluE1αA m1 variant (F732Y)
Type: cell-based, Trichoplax adhaerens
Details: m1; ligand 10 mM; normalized to glycine
Answer as a number with no unit attached.

As a guide, the following entries are already answered.
CC(C)[C@H](N)C(=O)O [valine] ... 0.0347
N[C@@H](CO)C(=O)O [L-serine] ... 1.05
N[C@@H](CCC(=O)O)C(=O)O [glutamate] ... 0.02
N[C@H](CO)C(=O)O [D-serine] ... 0.76
NCC(=O)O [glycine] ... 1.00

In the following, a different molecule is considered.
Find the recorded normalized peak inward current, Avg belonging to C[C@H](N)C(=O)O [alanine, L-alanine] and report it.
1.12
